- Tested on: EKVX
- ASSAY NOTES: NCI tumour cell line growth inhibition, 48 h
Calls of active or inactive are those of the source. Rule as the data show it: active = GI50 up to about 1.1 µM and inactive = higher.
// allowed return values: active, inactive

compound="O/N=C1/C(=C/c2ccc(Cl)c(Cl)c2)CCCC1C(NO)c1ccc(Cl)c(Cl)c1 (stereo unspecified)" discrete_label=inactive
compound=C/C(=C1/N=C(c2cc([N+](=O)[O-])ccc2Cl)N(c2ccc(Br)cc2)C1=O)c1ccc(N(CCC#N)CCC#N)cc1C discrete_label=inactive
compound=CCCCCCc1ccc(CCCCCCCC(=O)O)o1 discrete_label=inactive
compound=COc1cc(/C=N/c2ccc(S(N)(=O)=O)cc2)cc(OC)c1 discrete_label=inactive
compound=CCOC(=O)C(c1c[nH]c2ccccc12)(c1c[nH]c2ccccc12)c1c[nH]c2ccccc12 discrete_label=inactive
compound="CC(Nc1cc(Cl)cc(Cl)c1)c1ccncc1 (stereo unspecified)" discrete_label=inactive
compound=CCOP(=O)(OCC)C(F)(F)Cc1cnc(C)c2c1COC(C)(C)O2 discrete_label=inactive
compound="COCC12CCC(OC)C34C5CC6(O)C(OC)C=C(C5C6OC(=O)c5ccccc5)C(C(OC)C13)C4N(C)C2 (stereo unspecified)" discrete_label=inactive

Answer briefly: the call reported for "N=c1oc2ccc(Cl)cc2cc1C(=O)Nc1ccccc1" in this assay.
inactive

Answer briefly: the call reported for "O/N=C1\CC2(N3CCOCC3)CCC1(Cc1ccccc1)CC2" in this assay.
inactive
